Source: patent US7906334B2

# System: loblolly pine lines LP1 and LP3
# METHOD_SUMMARY: Effect of galactose and galactose-containing sugars during proliferation and prematuration on SE yield
# Format: cell-based, Pinus taeda (loblolly pine)
# SETUP_CONDITIONS: line LP3; 1% sucrose, 1.5% maltose, 1.5% lactose or 0.75% galactose
Could you please report measured # SE/g FW for the items listed next?
Enter the number, and then the unit.

Here is how some molecules turned out for # SE/g FW.
MOLECULE	RECORDED_METRIC	TEST_RESULT
OC[C@H]1O[C@@](CO)(O[C@H]2O[C@H](CO)[C@@H](O)[C@H](O)[C@H]2O)[C@@H](O)[C@@H]1O	# SE/g FW	100 ± 6 SE/g FW
OC[C@H]1O[C@H](O[C@H]2[C@H](O)[C@@H](O)[C@H](O)O[C@@H]2CO)[C@H](O)[C@@H](O)[C@@H]1O	# SE/g FW	160 ± 5 SE/g FW

Batch: # SE/g FW for all items listed.
1. O=C[C@H](O)[C@@H](O)[C@@H](O)[C@H](O)CO
2. OC[C@H]1O[C@@H](O[C@H]2[C@H](O)[C@@H](O)C(O)O[C@@H]2CO)[C@H](O)[C@@H](O)[C@H]1O (stereo partly shown)

["172 ± 5 SE/g FW", "110 ± 7 SE/g FW"]

====

# Test system: loblolly pine lines LP1 and LP3
# METHOD_SUMMARY: Effect of galactose and galactose-containing sugars during proliferation and prematuration on SE yield
# Type: cell-based, Pinus taeda (loblolly pine)
# Design: unit not given here
# SETUP_CONDITIONS: line LP3; 1% sucrose, 1.5% maltose, 1.5% lactose or 0.75% galactose
RECORDED_METRIC: Amount of tissue at the end of the preculture II stage

Here is how some compounds turned out for Amount of tissue at the end of the preculture II stage.
COMPOUND	TEST_RESULT
OC[C@H]1O[C@@](CO)(O[C@H]2O[C@H](CO)[C@@H](O)[C@H](O)[C@H]2O)[C@@H](O)[C@@H]1O	1278.18
O=C[C@H](O)[C@@H](O)[C@@H](O)[C@H](O)CO	8.65
OC[C@H]1O[C@H](O[C@H]2[C@H](O)[C@@H](O)[C@H](O)O[C@@H]2CO)[C@H](O)[C@@H](O)[C@@H]1O	118.22

Give Amount of tissue at the end of the preculture II stage only, for OC[C@H]1O[C@@H](O[C@H]2[C@H](O)[C@@H](O)C(O)O[C@@H]2CO)[C@H](O)[C@@H](O)[C@H]1O (stereo partly shown) , using loblolly pine lines LP1 and LP3 data. 8.78
